- experimental.system: Sodium- and chloride-dependent GABA transporter 1 (Mus musculus)
- assay.explanation: Displacement of [3H]NO711 from mouse GAT1 expressed in HEK293 cells at 100 uM measured after 40 mins of incubation by LC-ESI-MS-MS method
- Type: cell-based
- setup.conditions: in the assay text read “NO711” for “[3H]NO711”
# binarize residual activity: threshold 70% inclusive, high side satisfied, low side not satisfied

Here's what some known entries look like.
* Cc1ccsc1C(=CCCN(C)C(CC(C)O)C(=O)NCc1ccc(F)cc1)c1sccc1C (racemic; form 1) | satisfied
* Cc1ccsc1C(=CCCN(C)C(CO)C(=O)NCc1ccc(C(F)(F)F)cc1)c1sccc1C (stereo not drawn) | satisfied
* Cc1ccsc1C(=CCCN(C)C(CO)C(=O)NCc1ccccc1Cl)c1sccc1C (stereo not drawn) | satisfied
* Cc1ccsc1C(=CCCN(C)C(CC(C)O)C(=O)NCc1ccc(Cl)cc1)c1sccc1C (mixture of isomers) | satisfied
* Cc1ccsc1C(=CCCN(C)C(CC(C)O)C(=O)NCc1ccc(Cl)cc1)c1sccc1C (stereo in doubt) | satisfied

Given the entry Cc1ccsc1C(=CCCN(C)C(CCO)C(=O)NCc1ccccc1Cl)c1sccc1C (stereo not drawn) , answer whether its residual activity meets or surpasses 70%.
satisfied

Next up: Cc1ccsc1C(=CCCN(C)C(CC(C)O)C(=O)NCc1ccccc1)c1sccc1C (racemic; form 2)
not satisfied

Ok, now Cc1ccsc1C(=CCCN(C)C(CCO)C(=O)N1CCOCC1)c1sccc1C (stereo not drawn)
satisfied

Now the same for Cc1ccsc1C(=CCCN(C)C(CC(C)O)C(=O)NCc1ccccc1Cl)c1sccc1C (racemic; form 2)
satisfied

Can you check Cc1ccc(CNC(=O)C(CCO)N(C)CCC=C(c2sccc2C)c2sccc2C)cc1 (stereo not drawn) next?
not satisfied

Item: Cc1ccc(CNC(=O)C(CC(C)O)N(C)CCC=C(c2sccc2C)c2sccc2C)cc1 (racemic)
satisfied

Now consider Cc1ccsc1C(=CCCN(C)C(CCO)C(=O)NCc1ccc(Cl)cc1)c1sccc1C (stereo not drawn) .
satisfied

Ok, now Cc1ccsc1C(=CCCN(C)C(CCO)C(=O)NCc1ccccc1)c1sccc1C (stereo not drawn)
not satisfied

Now consider Cc1ccsc1C(=CCCN(C)C(CO)C(=O)NCc1ccc(Cl)cc1)c1sccc1C (stereo not drawn) and answer again.
not satisfied

Cc1ccsc1C(=CCCN(C)C(CO)C(=O)NCc1ccccc1)c1sccc1C (stereo not drawn) , same question.
not satisfied

Consider next the molecule Cc1ccsc1C(=CCCN(C)C(CC(C)O)C(=O)NCc1ccccc1)c1sccc1C (racemic; form 1) in the same way.
satisfied

What about Cc1ccsc1C(=CCCN(C)C(CC(C)O)C(=O)NCc1ccccc1Cl)c1sccc1C (racemic; form 1) ?
satisfied

---

- experimental.system: GABA transporter 4 (Mus musculus, UniProt P31650)
- Sequence (P31650 whole entry): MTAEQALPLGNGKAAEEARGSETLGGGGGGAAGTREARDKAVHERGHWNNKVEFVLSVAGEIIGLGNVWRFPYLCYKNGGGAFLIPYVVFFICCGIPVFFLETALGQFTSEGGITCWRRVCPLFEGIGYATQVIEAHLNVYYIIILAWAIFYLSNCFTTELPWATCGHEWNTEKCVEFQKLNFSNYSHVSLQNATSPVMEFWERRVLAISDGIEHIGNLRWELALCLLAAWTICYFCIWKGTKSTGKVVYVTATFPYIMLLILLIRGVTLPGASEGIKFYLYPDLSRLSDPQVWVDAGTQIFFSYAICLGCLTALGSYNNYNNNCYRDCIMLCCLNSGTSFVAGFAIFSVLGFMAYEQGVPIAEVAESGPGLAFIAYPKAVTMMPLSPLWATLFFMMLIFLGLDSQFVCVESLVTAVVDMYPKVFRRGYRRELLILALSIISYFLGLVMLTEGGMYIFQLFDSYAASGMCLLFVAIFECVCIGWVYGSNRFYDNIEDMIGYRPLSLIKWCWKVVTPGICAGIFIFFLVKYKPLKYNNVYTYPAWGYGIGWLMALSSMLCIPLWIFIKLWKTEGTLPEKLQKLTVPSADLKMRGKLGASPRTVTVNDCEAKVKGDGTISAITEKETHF
- assay.explanation: Inhibition of mouse GAT4 expressed in HEK293 cell line assessed as inhibition of [3H]GABA uptake measured after 35 mins by liquid scintillation method
- Type: cell-based
readout.name: IC50 (µM)
Record the value in µM, omitting the unit from your answer.

- Cc1ccsc1C(=CCCN(C)C(CCO)C(=O)NC(C)c1ccccc1)c1sccc1C (centres undefined): 13.8

For the compound shown here, Cc1ccsc1C(=CCCN(C)C(CC(C)O)C(=O)NCc1ccc(Cl)cc1)c1sccc1C (mixture of isomers) , give the reported IC50.
13.2

Can you check O=C(O)C1=CCCN(CCO/N=C/c2ccccc2-c2ccc(Cl)cc2Cl)C1 next?
85.1

// repeat for Cc1ccsc1C(=CCCN(C)C(CC(C)O)C(=O)NCc1ccccc1Cl)c1sccc1C (racemic; form 1) and report
9.55
